Readings of concentration at 2 h for the listed molecules
- measurement.protocol: Pharmacokinetic test in rats, intravenous injection
- Type: in vivo, SD rats
- test.context: male, Sprague-Dawley, rat, plasma, intravenous, 2 mg/kg, 2 mg/kg iv, 2 h, mean; read-out: Concentrations in Plasma of Rats after Intravenous Injection, Mean ± SD

{"structure.smiles.string": "Cc1ccc(Sc2ccccc2N2CCNCC2)c(C)c1", "concentration at 2 h (ng/mL)": 86.4}
{"structure.smiles.string": "[2H]C([2H])([2H])c1ccc(Sc2ccccc2N2CCNCC2)c(C([2H])([2H])[2H])c1", "concentration at 2 h (ng/mL)": 63.2}
